Target: T1, human VEGF (hVEGF) (human, UniProt P15692 181-395)
T1 construct: also called VEGF-A
T1 sequence: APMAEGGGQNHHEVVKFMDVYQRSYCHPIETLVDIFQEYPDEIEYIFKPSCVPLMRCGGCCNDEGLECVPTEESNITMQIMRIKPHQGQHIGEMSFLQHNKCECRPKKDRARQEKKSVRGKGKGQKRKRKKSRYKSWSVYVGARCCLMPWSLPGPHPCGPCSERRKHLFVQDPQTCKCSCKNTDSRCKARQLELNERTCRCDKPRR
Experiment: SPR single-cycle;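 also: fab variants injected over hVEGF immobilized on a CM5 chip (Biacore T200), threefold dilution series from 0.02 to 50 nM, kinetics fitted with a 1:1 Langmuir model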
recorded-metric: Kd (nM)

[[record]]
binder = "G6.31 LC-P40E (Fab, V domains shown, Fab) VH: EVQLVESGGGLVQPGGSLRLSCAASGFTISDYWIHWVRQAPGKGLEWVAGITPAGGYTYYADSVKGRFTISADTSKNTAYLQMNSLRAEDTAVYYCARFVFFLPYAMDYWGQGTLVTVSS VL: DIQMTQSPSSLSASVGDRVTITCRASQDVSTAVAWYQQKEGKAPKLLIYSASFLYSGVPSRFSGSGSGTDFTLTISSLQPEDFATYYCQQGYGNPFTFGQGTKVEIK"
recorded_metric = "Kd"
test_result = 17.9

[[record]]
binder = "G6.31 HC-S30E (Fab, name in Kabat numbering, V domains shown, Fab) VH: EVQLVESGGGLVQPGGSLRLSCAASGFTIEDYWIHWVRQAPGKGLEWVAGITPAGGYTYYADSVKGRFTISADTSKNTAYLQMNSLRAEDTAVYYCARFVFFLPYAMDYWGQGTLVTVSS VL: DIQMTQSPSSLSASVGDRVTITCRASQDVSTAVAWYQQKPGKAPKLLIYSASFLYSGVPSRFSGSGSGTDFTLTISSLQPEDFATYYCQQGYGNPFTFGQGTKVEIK"
recorded_metric = "Kd"
test_result = 7.1

[[record]]
binder = "G6.31 HC-G65E (Fab, name in Kabat numbering, V domains shown, Fab) VH: EVQLVESGGGLVQPGGSLRLSCAASGFTISDYWIHWVRQAPGKGLEWVAGITPAGGYTYYADSVKERFTISADTSKNTAYLQMNSLRAEDTAVYYCARFVFFLPYAMDYWGQGTLVTVSS VL: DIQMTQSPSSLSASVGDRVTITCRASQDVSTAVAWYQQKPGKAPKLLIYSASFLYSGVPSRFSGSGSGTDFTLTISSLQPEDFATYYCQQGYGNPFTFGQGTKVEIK"
recorded_metric = "Kd"
test_result = 1.56


This collection of values is drawn from patent US20210115124A1.
